target: Inadl_9, Q8NI35; test: holdup assay; design: key: below the threshold = too weak to quantify, mostly under pKd 3.1 to 4; settings: plain residues with an end cap or a label only (N-terminal biotin on a linker: ado-ado)
Sequence (Q8NI35 1530-1615): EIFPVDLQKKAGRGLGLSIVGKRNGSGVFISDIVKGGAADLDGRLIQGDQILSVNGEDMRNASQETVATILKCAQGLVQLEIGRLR
Measured Quantity: pKd

>  <Binder>
TETASVCTKV [SLC23A1, Q9UHI7]

>  <Measured Quantity>
pKd

>  <Result>
below the threshold

$$$$
>  <Binder>
QKNKDKEYYV [NRXN3_rs746444206, Q9Y4C0]

>  <Measured Quantity>
pKd

>  <Result>
4.41

$$$$
>  <Binder>
FVHPILQSAV [PRKCA, P17252]

>  <Measured Quantity>
pKd

>  <Result>
below the threshold

$$$$
>  <Binder>
GFGEERESIL [KIDINS220, Q9ULH0]

>  <Measured Quantity>
pKd

>  <Result>
below the threshold

$$$$
